test system: HL-60(TB) leukemia; test: NCI-60 one-dose screen, 48 h; conditions: 10 µM unless noted
This is part of a sample that, as a whole, favours compounds with a hit. Of some 83,000 tested, about 20% had one in any assay. Calls of active or inactive are those of the source. How the source made its calls: active means growth percent below 10; inactive means the rest.
Write down one outcome, taken from True = active, False = inactive

Worked set:
compound	label
O=C1OCC2=C1C(c1ccc3c(c1)OCO3)CC(=O)N2c1cccc(Cl)c1 (centres undefined)	False
NC(=O)c1cccc(-c2ccc(S(=O)(=O)Nc3ccc4c(c3)N(C(=O)C3CC3)CCC4)cc2)c1	True
Cc1ccc2nc(-c3ccc(C(=O)N/N=C/c4ccc([N+](=O)[O-])cc4)cc3)[nH]c2c1	False
COc1cc2c(cc1-c1c(C)noc1C)ncc1nc(C3CCC(F)(F)CC3)n([C@H](C)COC(F)F)c12	False
C[PH+](c1nc2ccccc2nc1[PH+](C)C(C)(C)C)C(C)(C)C.C[PH+](c1nc2ccccc2nc1[PH+](C)C(C)(C)C)C(C)(C)C.[Au+].[Cl-] (centres undefined)	False
COC(=O)Nc1nc2ccc(C(=O)c3cccs3)cc2[nH]1	True
COc1cc(/C=N/NC(=O)c2cnn3c2NC(c2ccccc2)C3)ccc1Oc1ccccc1 (centres undefined)	False
O=[N+]([O-])c1ccccc1C(O)Cc1ccc2ccccc2n1 (centres undefined)	False

Okay, now this compound:
Request: Kindly provide the recorded test outcome for the following compound: "O=C(CSc1nc2ccccc2[nH]1)c1ccc(N2CCOCC2)cc1"
Result: False
